biological target: UniProt P09874; assay: PARP1 probe displacement HTRF assay; settings: read-out: PARP1 HTRF; binned Kd, probe displacement HTRF
Sequence (P09874 whole entry): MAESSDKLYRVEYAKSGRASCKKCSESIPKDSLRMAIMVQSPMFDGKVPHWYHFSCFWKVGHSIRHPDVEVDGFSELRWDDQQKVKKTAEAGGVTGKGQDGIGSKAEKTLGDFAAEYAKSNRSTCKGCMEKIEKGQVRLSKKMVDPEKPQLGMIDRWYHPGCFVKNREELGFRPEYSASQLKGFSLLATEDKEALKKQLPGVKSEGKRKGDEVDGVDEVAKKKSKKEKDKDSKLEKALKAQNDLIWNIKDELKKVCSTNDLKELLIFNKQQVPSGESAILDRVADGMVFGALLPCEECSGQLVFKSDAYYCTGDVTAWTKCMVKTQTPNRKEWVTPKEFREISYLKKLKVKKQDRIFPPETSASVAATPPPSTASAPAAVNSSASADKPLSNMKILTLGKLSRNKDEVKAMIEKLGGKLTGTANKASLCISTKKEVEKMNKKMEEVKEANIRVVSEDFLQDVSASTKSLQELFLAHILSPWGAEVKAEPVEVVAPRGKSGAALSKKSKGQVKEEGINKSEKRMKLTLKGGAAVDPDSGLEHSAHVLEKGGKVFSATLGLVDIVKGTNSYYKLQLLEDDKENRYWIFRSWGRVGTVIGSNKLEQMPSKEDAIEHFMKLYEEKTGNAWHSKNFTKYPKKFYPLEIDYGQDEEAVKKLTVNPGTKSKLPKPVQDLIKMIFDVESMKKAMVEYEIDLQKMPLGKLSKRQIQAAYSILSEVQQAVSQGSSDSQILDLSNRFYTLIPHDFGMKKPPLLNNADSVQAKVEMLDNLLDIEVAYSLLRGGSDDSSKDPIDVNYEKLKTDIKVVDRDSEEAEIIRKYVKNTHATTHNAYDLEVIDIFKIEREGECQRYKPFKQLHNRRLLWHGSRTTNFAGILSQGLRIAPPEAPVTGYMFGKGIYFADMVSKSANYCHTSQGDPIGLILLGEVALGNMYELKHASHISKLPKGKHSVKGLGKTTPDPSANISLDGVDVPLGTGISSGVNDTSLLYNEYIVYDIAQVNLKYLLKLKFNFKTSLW
Examples of molecules with documented Kd follow.

// worked examples, Kd included
- Molecule: "CNC(=O)c1ccc(N2CCC(N3CCC(c4cc5ncc(F)cc5c(=O)[nH]4)C3)CC2)cn1 (single isomer, unassigned) [Compound 315b]"
  Kd: "< 10 nM"
- Molecule: "CC(=O)Nc1ccc(N2CCC(N3CCC(c4nc5ccccc5c(=O)[nH]4)C3)CC2)cn1 (single isomer, unassigned) [Compound 262a]"
  Kd: "1000 to 10000 nM"

Q: Fetch value of Kd on UniProt P09874 for CNC(=O)c1ncc(N2CCC(N3CCC(c4cc5ccc(F)cc5c(=O)[nH]4)C3)CC2)cc1F (single isomer, unassigned) [Compound 395b] .
Result: < 10 nM

Q: Fetch value of Kd on UniProt P09874 for CNC(=O)c1ccc(N2CCC(N3CCC(c4[nH]c(=O)c5cc(F)ccc5c4F)C3)CC2)cn1 (single isomer, unassigned) [Compound 401b] .
Result: < 10 nM
